- assayed system: Oxysterols receptor LXR-beta (Homo sapiens)
- Sequence (P55055 whole entry): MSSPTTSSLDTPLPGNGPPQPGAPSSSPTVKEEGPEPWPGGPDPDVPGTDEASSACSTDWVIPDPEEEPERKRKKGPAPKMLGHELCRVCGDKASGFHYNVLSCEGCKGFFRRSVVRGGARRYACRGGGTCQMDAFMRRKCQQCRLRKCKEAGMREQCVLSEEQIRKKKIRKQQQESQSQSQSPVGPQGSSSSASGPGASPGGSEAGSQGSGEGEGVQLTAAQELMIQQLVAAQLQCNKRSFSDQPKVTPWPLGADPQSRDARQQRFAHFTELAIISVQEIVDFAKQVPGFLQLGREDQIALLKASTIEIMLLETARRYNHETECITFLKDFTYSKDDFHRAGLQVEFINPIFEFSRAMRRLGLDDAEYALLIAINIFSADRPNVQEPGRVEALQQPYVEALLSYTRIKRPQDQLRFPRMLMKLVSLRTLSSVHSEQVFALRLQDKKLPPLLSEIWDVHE
- experiment summary: Scintillation Proximity Assay
endpoint label: IC50

-- ask Bench note: what IC50 did COc1cccc(C2SC(c3ccc(Cl)cc3)=NN2C(=O)c2c(F)cc(F)cc2F)c1OC (racemic) show?
-- reply 300 nM

* * *

Sequence of the target: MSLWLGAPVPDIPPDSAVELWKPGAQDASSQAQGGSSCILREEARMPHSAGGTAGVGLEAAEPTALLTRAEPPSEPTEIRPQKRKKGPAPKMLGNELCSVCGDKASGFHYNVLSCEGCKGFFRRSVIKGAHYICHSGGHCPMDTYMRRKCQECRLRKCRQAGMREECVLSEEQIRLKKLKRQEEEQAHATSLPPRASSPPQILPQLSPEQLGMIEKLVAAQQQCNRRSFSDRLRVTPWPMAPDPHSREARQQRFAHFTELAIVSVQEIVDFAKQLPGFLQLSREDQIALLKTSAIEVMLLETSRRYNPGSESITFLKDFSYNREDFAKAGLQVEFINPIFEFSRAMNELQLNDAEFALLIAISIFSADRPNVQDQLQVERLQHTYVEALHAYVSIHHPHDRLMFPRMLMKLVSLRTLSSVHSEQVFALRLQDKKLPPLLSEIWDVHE
Field: pIC50. Provide a value for each of the compounds that follow.
A value of pIC50 is the negative decimal logarithm of a concentration given in moles per litre.

-- ask Bench note: what pIC50 did COc1cccc([C@H]2SC(c3ccc(Cl)cc3)=NN2C(=O)c2c(F)cc(F)cc2F)c1OC show?
-- reply 5.30

-- ask Bench note: what pIC50 did O=C(O)Cc1cccc(OCCCN(Cc2cccc(C(F)(F)F)c2Cl)CC(c2ccccc2)c2ccccc2)c1 show?
-- reply 6.92

Source: BindingDB's records for doi:10.1021/jm070453f
